Endpoint summary: pIC50, system: Oxytocin receptor (Homo sapiens), multiple sources combined.
pIC50: −log10 of the molar value.
OUTCOME_MEASURE: pIC50

Recorded results for 5 compounds are shown here.
[
  {
    "COMPOUND": "COc1cc(C(=O)N2Cc3ccc(C(=O)N(C)Cc4ccc[n+]([O-])c4)n3Cc3ccccc32)ccc1-c1ccccc1C(F)(F)F",
    "RECORDED_VALUE": 8.33
  },
  {
    "COMPOUND": "COc1cc(C2=CCCCC2)c(Cl)cc1C(=O)N1Cc2ccc(C(=O)N(C)Cc3cccnc3)n2Cc2ccccc21",
    "RECORDED_VALUE": 8.35
  },
  {
    "COMPOUND": "Cc1ccc(-c2ccc(C(=O)N3Cc4ccc(C(=O)N(C)CC(O)CO)n4Cc4ccccc43)cc2)c2ccccc12 (stereo not shown)",
    "RECORDED_VALUE": 7.25
  },
  {
    "COMPOUND": "Cc1cc(C(=O)N2Cc3ccc(C(=O)N(C)C[C@H](O)[C@@H](O)[C@H](O)[C@H](O)CO)n3Cc3ccccc32)ccc1-c1ccccc1C(F)(F)F",
    "RECORDED_VALUE": 8.46
  },
  {
    "COMPOUND": "COc1ccccc1-c1ccc(C(=O)N2Cc3ccc(C(=O)N4CCN(CCN5CCOCC5)CC4)n3Cc3ccccc32)cc1C",
    "RECORDED_VALUE": 8.44
  }
]

I = COc1cccc(-c2ccc(C(=O)N3Cc4ccc(C(=O)N5CCC[C@H]5CN5CCCC5)n4Cc4ccccc43)cc2C)c1
II = CC1=C(c2ccc(C(=O)N3Cc4cccn4Cc4ccccc43)cc2)CCCC1
III = O=C(c1ccc(-c2cccc3ccccc23)nc1)N1Cc2cccn2Cc2ccccc21
IV = COc1cc(-c2ccccc2C)c(Cl)cc1C(=O)N1Cc2ccc(C(=O)N(C)CCc3ccccn3)n2Cc2ccccc21
V = COc1ccccc1-c1ccc(C(=O)N2Cc3ccc(C(=O)N4CCN(CCCN(C)C)CC4)n3Cc3ccccc32)cc1C
IN: Sort by pIC50, descending. Answer format: list of labels, ordered as asked.
OUT: I, IV, II, V, III

1 = COc1ccccc1-c1ccc(C(=O)N2Cc3ccc(C(=O)N4CCN(CCN5CCOCC5)CC4)n3Cc3ccccc32)cc1
2 = COc1cc(-c2ccccc2Cl)c(Cl)cc1C(=O)N1Cc2ccc(C(=O)N(C)C3CCN(C)CC3)n2Cc2ccccc21
IN: # query: argmin of pIC50 over 1 and 2 Your answer should be the label of the entry you select.
OUT: 1
(1: 8.02, 2: 8.78)
